pIC50 values for Tyrosine-protein kinase JAK3 (Homo sapiens) compiled from several publications are listed below.
pIC50: −log10 of the molar value.
readout.name: pIC50

• CC1(CO[C@H]2CNc3cc(Nc4ncc(C(N)=O)c(NC5CC5)n4)ccc3OC2)COC1 = 7.00 to 8.00
• O=C(O)Cn1cc(Nc2ncc3ccn(Cc4ccsc4)c3n2)cn1 = > 7.00
• CC[C@@H](Cn1ccc2cnc(Nc3cnn(CC(=O)OC(C)C)c3)nc21)C(C)C = > 7.00
• CCC(c1ccccc1)n1cc(-c2nc(-c3cnn(C[C@@H](O)CO)c3)cn3nccc23)cn1 (some centres unmarked) = 6.00 to 7.00
• O=C(NCCC(F)(F)F)c1nn(CCCc2ccccn2)c2c1CN(c1ncnc3[nH]ccc13)CC2 = 6.30 to 7.00
• Cn1c(=O)n([C@H]2CC[C@H](O)CC2)c2nc(-n3cnc4ccc(C#N)cc43)nc(N3CC(F)(F)C3)c21 = > 7.00
• C[C@@H](Nc1c(C(N)=O)cnn2cc(N3CCCS3(=O)=O)cc12)C(C)(C)F = 7.95
• CC[C@H](n1cc(-c2nc(-c3cnn(C[C@@H](O)CO)c3)cn3nccc23)cn1)C(C)(F)F = 5.00 to 6.00

---

Several publications report IC50 on Tyrosine-protein kinase JAK3 (Homo sapiens, UniProt P52333); those values are gathered here.
readout.name: IC50

• CCC(CC)Cn1ccc2cnc(Nc3cnn(CC(=O)OCCO)c3)nc21 = < 100 nM
• CCC(C(=O)Nc1nccc2c(-c3nc(Nc4cccc(NS(C)(=O)=O)c4F)ncc3C)c[nH]c12)N1CCN(C)CC1 (stereo not shown) = 500 to 10000 nM
• Cc1cccc(Nc2nc(Nc3cccc(NC(=O)/C=C/CN(C)C)c3)ncc2C)c1 = < 10 nM
• Cc1ccnc(NC(=O)c2ccc(Oc3ccnc4[nH]nc(N[C@@H]5CCCN(C(=O)[C@H]6CCOC6)C5)c34)cc2)c1 = > 10000 nM
• CCC(C)OC(=O)Cn1cc(Nc2ncc3ccn(CC(CC)C(C)C)c3n2)cn1 (stereo not shown) = < 100 nM
• OCc1cccc(-c2ccnc3[nH]cc(Sc4ccccc4)c23)c1 = ≤ 10000 nM
• CCN1CC(CC#N)(n2cc(-c3nc(-c4cnn(C)c4)cc4nccn34)cn2)C1 = > 1000 nM
• Cc1ccc(NC(=O)c2cc(N(C)C)cc(C(F)(F)F)c2)cc1-c1ccc2c(c1)[nH]c1ncncc12 = ≤ 500 nM
• C=CC(=O)Nc1cccc(Nc2cc(Nc3cccc(C)c3)ncn2)c1 = ≤ 10 nM
• CCNc1nc2cnc(-n3cnc4ccc(C#N)cc43)nc2n1[C@@H]1CCOc2ccccc21 = < 100 nM
• Cc1nc2cnc(-n3cnc4ccccc43)nc2n1[C@@H]1CCOc2c(F)cccc21 = < 100 nM
• Cc1ccc(NC(=O)c2n[nH]c3cc(-c4cc(F)c(O)cc4CC(F)(F)F)nc(NCc4ccccc4N(C)S(C)(=O)=O)c23)cn1 = 475 nM
• O=C(c1ccc(O)cc1)c1c[nH]c2ncc(-c3cccs3)cc12 = ≤ 10000 nM
• C=CC(=O)N1CCC[C@@H]1Cn1nc(-c2ccc(Oc3ccccc3)cc2)c2c(N)ncnc21 = 13000 nM
• CCC(CC)n1cc(-c2nc(-c3cnn([C@@H](C)[C@H](C)O)c3)cn3nccc23)cn1 (single isomer, unassigned) = 1000 to 10000 nM
• CCC(=O)c1cnc(Nc2ccc(C(=O)O)cn2)cc1Nc1cccc(-c2ncn(C)n2)c1OC = ≥ 500 nM
• CCC(=O)c1cnc(Nc2ccnc(OCCO)n2)cc1Nc1cccc(-c2ncn(C)n2)c1OC = ≥ 500 nM
• N#Cc1ccc(-c2ccnc(Nc3ccc(N4CCOCC4)cc3)n2)cc1Cl = > 1000 nM
• C=CC(=O)Nc1cccc(Cn2ccc3cnc(Nc4cnn(CC(=O)OCC)c4)nc32)c1 = 100 to 1000 nM
• CC[C@H](Cn1ccc2cnc(Nc3cnn(CC(=O)O[C@@H]4CCN(C)C4)c3)nc21)C(C)C = < 100 nM
• Cc1cnc2nc1Nc1cc(F)cc(c1)CCNC(=O)c1ccc(cc1S(C)(=O)=O)-c1cnc(F)c(c1)N2 = 11 to 100 nM
• N#CCC(C1CCCC1)n1cc(-c2nc(-c3ccc(N4CCOCC4)cc3)cc3nccn23)cn1 (single isomer, unassigned) = 100 to 1000 nM
• C[C@]1(F)CCC[C@H]1Nc1c(C(N)=O)cnn2cc(N3CCCC3=O)cc12 (racemic) = 0.5 nM
• CCC(CC)Cn1ccc2cnc(Nc3cnn(CC(=O)OC4CC(C#N)C4)c3)nc21 (stereo not shown) = < 100 nM
• CC1(C)[C@H](Nc2c(C(N)=O)cnn3cc(-c4cccc5ncccc45)cc23)CC[C@]1(C)N = 13.8 nM
• Cn1ccc(-c2cc3nccn3c(-c3ccn(C4(CC#N)CN(CC(F)(F)F)C4)n3)n2)cc1=O = > 1000 nM
• Cn1c(=O)n([C@H]2CC[C@H](O)CC2)c2nc(-n3cnc4ccc(F)cc43)nc(N3CC(F)(F)C3)c21 = < 100 nM
• COCCC1(n2cc(-c3nc(-c4cnn(C)c4)cc4nccn34)cn2)CN(C(=O)N(C)C)C1 = > 1000 nM
• CS(=O)(=O)N1CCN(CCNC(=O)c2noc3c2CN(c2ncnc4[nH]ccc24)CC3)CC1 = 100 to 500 nM
• CCC(C(=O)Nc1nccc2c(-c3nc(Nc4cn(C)nc4OC)ncc3C)c[nH]c12)N1CCN(C2COC2)CC1 (stereo not shown) = < 500 nM
• Cc1nc2cnc(-n3cnc4ccccc43)nc2n1C1COCc2c(F)cccc21 (stereo not shown) = 100 to 1000 nM
